The reported numbers originate from patent US11021467B2.

- Tgt: PI3Kβ (Homo sapiens (Human))
- Sequence (P42338 whole entry, canonical isoform): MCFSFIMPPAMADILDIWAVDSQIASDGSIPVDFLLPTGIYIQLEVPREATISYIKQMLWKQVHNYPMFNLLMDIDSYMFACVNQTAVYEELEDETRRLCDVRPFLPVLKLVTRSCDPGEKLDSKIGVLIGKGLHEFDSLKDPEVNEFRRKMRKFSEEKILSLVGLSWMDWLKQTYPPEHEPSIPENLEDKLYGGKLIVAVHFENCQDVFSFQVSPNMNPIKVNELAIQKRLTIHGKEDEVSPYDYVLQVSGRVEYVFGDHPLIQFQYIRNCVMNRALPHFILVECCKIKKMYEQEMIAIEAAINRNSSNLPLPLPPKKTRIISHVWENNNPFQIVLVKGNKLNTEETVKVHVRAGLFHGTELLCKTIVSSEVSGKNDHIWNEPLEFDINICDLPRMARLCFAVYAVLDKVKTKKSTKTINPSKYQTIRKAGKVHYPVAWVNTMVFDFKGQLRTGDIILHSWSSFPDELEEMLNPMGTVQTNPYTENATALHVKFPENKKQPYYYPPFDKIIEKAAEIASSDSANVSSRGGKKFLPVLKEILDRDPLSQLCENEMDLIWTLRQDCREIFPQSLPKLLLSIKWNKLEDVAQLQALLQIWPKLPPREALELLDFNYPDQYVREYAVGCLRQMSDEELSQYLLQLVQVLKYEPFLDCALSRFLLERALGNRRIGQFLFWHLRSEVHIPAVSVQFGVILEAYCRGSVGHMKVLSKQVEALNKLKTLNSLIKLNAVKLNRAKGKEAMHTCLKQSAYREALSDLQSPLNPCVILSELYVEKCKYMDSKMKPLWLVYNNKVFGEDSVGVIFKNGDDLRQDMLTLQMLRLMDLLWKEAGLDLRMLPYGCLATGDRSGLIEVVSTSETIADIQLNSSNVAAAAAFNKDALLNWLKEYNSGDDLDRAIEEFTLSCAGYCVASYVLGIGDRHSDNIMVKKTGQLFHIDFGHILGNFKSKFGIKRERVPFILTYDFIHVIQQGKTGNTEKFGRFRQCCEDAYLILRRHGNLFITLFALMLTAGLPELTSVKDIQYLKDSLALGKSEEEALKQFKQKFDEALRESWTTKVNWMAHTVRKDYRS
- Sequence (P27986 whole entry partner, canonical isoform): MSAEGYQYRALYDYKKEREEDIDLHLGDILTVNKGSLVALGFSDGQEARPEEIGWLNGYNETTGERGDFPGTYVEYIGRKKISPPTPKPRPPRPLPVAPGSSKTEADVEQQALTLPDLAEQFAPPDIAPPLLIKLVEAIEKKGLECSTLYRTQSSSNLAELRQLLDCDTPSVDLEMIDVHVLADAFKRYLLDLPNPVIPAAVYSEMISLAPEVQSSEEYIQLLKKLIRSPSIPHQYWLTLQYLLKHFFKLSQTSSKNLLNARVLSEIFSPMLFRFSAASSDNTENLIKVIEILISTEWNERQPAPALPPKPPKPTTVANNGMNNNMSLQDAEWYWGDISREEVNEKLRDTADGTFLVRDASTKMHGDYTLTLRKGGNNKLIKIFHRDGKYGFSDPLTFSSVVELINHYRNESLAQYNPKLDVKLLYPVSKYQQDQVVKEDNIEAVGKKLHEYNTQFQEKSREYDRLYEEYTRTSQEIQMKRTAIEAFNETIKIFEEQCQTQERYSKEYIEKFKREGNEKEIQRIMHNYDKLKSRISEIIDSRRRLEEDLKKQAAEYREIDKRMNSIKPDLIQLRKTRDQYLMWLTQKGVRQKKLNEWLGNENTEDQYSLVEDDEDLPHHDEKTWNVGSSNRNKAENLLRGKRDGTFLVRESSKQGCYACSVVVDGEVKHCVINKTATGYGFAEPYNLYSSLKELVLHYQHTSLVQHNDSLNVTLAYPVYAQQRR
- Assay info: TR-FRET enzymatic activity assay against PI3K isoforms
- Setup conditions: PI3Kβ, TR-FRET, 2×Km ATP, 30 minutes at 25° C.
pIC50 listing for selected molecules.
Note on pIC50: it is the negative log10 of concentration, concentration in mol/L.

>>> measured_result("N#CCCn1c([C@@H](Nc2nc(N)nc(N)c2C#N)C2CC2)nc2cccc(Cl)c2c1=O [Compound 112]")
8.10
>>> measured_result("NCCCn1c([C@@H](Nc2ncnn3ccnc23)C2CC2)nc2cccc(Cl)c2c1=O [Compound 35]")
6.96
>>> measured_result("CNCCCn1c([C@@H](Nc2nc(N)nc(N)c2C#N)C2CC2)nc2cccc(Cl)c2c1=O [Compound 46]")
8.22

We next turn to a different molecule, shown below.
In: Dear colleague, I am looking for the recorded pIC50 of the following molecule: C[C@H](Nc1nc(N)nc(N)c1C#N)c1nc2c(Cl)cc(F)cc2c(=O)n1[C@H]1C[C@H](O)C1 [Compound 98]
Out: 6.48
